- Test system: SK-MEL-2
- procedureText: NCI tumour cell line growth inhibition, 48 h
Activity calls are given as the source filed them. No stated cut-off is given here; in the data, active = GI50 up to about 1.1 µM and inactive = higher.
testReadout: GI50

molecule | testReadout | recordedResult
OC(c1nc2ccccc2[nH]1)C(O)C(O)C(O)c1nc2ccccc2[nH]1 (stereo not given) | GI50 | > 100 µM (inactive)
Cc1cc2nc3c(C#N)c4c(c(-c5ccc(Cl)cc5)n3c2cc1C)CCC4 | GI50 | 19 µM (inactive)
c1c[nH]c(C23C4C5C6C4C2C6C53)n1 (stereo not given) | GI50 | > 100 µM (inactive)
CSc1ccc2c(cc1=O)C(NC(=O)c1ccc(OC(C)=O)cc1)CCc1cc(O)c(O)c(O)c1-2 (stereo not given) | GI50 | 16.2 µM (inactive)
Oc1c([Si](c2ccccc2)(c2ccccc2)c2ccccc2)cc2ccccc2c1-c1c(O)c([Si](c2ccccc2)(c2ccccc2)c2ccccc2)cc2ccccc12 | GI50 | > 100 µM (inactive)
CC(=O)/C=C/C=C(\C)CC/C=C(\C)CC(C)C | GI50 | 20 µM (inactive)
O=C(ON=C1c2ccccc2C(Br)C(Br)c2ccccc21)c1ccccc1 (stereo not given) | GI50 | 30.2 µM (inactive)
Cc1ccccc1N(CCC#N)C1=NN(C(=O)CC(=O)Nc2ccc(Cl)cc2)C(c2ccccc2)C1 (stereo not given) | GI50 | > 100 µM (inactive)

Given the molecule "CN(CCN(C)C(=O)CCOS(C)(=O)=O)C(=O)CCOS(C)(=O)=O" , what is its reported GI50? > 100 µM (inactive)

// repeat for Cc1ccc(SCC(CF)OC(C)n2cnc3c(Cl)nc(N)nc32)cc1 (stereo not given) and report 69.8 µM (inactive)

====

- System: SF-539
- procedureText: NCI tumour cell line growth inhibition, 48 h
Active and inactive are the calls of the source. Rule as the data show it: active = GI50 up to about 1.1 µM and inactive = higher. Positions of bridges follow the written chain, without caps; N, C: chain ends. Residues, ends and D or L forms follow the SMILES beside them.
Pick one: active, inactive

compound | categoryLabel
CC[C@@H]1CC[C@@H]2[C@H](CC[C@]3(C)[C@@H](OC(C)=O)CC[C@@H]23)[C@H]1C(=O)OC | inactive
Cc1ccc(S(=O)(=O)Oc2cc(S(=O)(=O)O)cc3cc(S(=O)(=O)O)cc(N)c23)cc1 | inactive

// param item: O=c1[nH]c(N/N=C\C(O)C(O)C(O)CO)nc2ccccc12 (centres undefined) ; yields the recorded call inactive

Now the same for C[C@]12CC[C@H](O)CC1=CC[C@@H]1C2CC[C@]2(C)c3nn(-c4ccc(F)cc4)nc3CC12 (some centres undefined) inactive

Follow-up item: COc1cc2c(cc1OCCCC(=O)Nc1cc(C(=O)Nc3cc(C(=O)NCCCN(C)C)n(C)n3)n(C)n1)N=CC1CCCN1C2=O (centres undefined) inactive

Would you kindly repeat that for "CN(C)CCNC(=O)c1cccc2c(Nc3ccc(S(=O)(=O)N=C(N)N)cc3)c3ccccc3nc12" ? inactive

Next entry: "O=C(/C=C/c1ccc(OCCCOc2ccc(/C=C/C(=O)c3ccccc3)cc2)cc1)c1ccccc1" inactive

And the next one, CC12CCC(=O)N1c1ccc([N+](=O)[O-])cc1N2 (centres undefined) ? inactive

Entry to check: CC(=O)OCC12C(OC(C)=O)C(=O)C3C(OC(C)=O)C14OC3(C)COC(=O)c1cccnc1C(C)C(C)C(=O)OC(C(OC(C)=O)C2OC(C)=O)C4(C)O (centres undefined) inactive

Try this compound too: CCC(C)C1NC(=O)C(CC(C)C)NC(=O)C(C(C)C)NC(=O)C2CSSCC(NC1=O)C(=O)N2 (centres undefined) (cyclo(CCVLI); disulfide 1-2; configuration not given here) active

Entry to check: "CCc1nc2cc(/N=N/c3c(O)ccc4ccccc34)ccc2[nH]1" inactive
